From: ChEMBL document CHEMBL1177643

- System: PC-3
- Measurement notes: Growth inhibition of human PC3 cells after 48 hrs by sulforhodamine B assay
- Assay type: functional
- Condition description: PC-3, 48 h
Measured endpoint: GI50 (nM)

1. COc1cc(-c2nc3ccccc3s2)ccc1OCCCCCOc1cc2c(cc1OC)C(=O)N1CCC[C@H]1C=N2; 41.7
2. COc1cc2c(cc1OCCCCC(=O)Nc1ccc(-c3nc4ccccc4s3)cc1)N=C[C@@H]1CCCN1C2=O; 2040
3. COc1cc2c(cc1OCCCCOc1ccc(-c3nc4ccccc4s3)cc1)N=C[C@@H]1CCCN1C2=O; 295
4. COc1cc(-c2nc3ccccc3s2)ccc1OCCCCOc1cc2c(cc1OC)C(=O)N1CCC[C@H]1C=N2; 407
5. COc1cc2c(cc1OCCCCCOc1ccc(-c3nc4ccccc4s3)cc1)N=C[C@@H]1CCCN1C2=O; 234

----------
Reported GI50 values for a set of compounds
- Test system: HOP-92
- Measurement notes: Growth inhibition of human HOP92 cells after 48 hrs by sulforhodamine B assay
- Type: functional
- Condition description: HOP-92, 48 h
Measured endpoint: GI50 (µM)

1. COc1cc(-c2nc3ccccc3s2)ccc1OCCCCCOc1cc2c(cc1OC)C(=O)N1CCC[C@H]1C=N2; 0.0447
2. COc1cc2c(cc1OCCCCOc1ccc(-c3nc4ccccc4s3)cc1)N=C[C@@H]1CCCN1C2=O; 0.178
3. COc1cc(-c2nc3ccccc3s2)ccc1OCCCCOc1cc2c(cc1OC)C(=O)N1CCC[C@H]1C=N2; 0.263
4. COc1cc2c(cc1OCCCCC(=O)Nc1ccc(-c3nc4ccccc4s3)cc1)N=C[C@@H]1CCCN1C2=O; 1.74
5. COc1cc2c(cc1OCCCCCOc1ccc(-c3nc4ccccc4s3)cc1)N=C[C@@H]1CCCN1C2=O; 0.269

----------
Measured log10 GI50 values are reported for all entries that follow.
- Tested on: COLO 205
- Measurement notes: Growth inhibition of human COLO205 cells after 48 hrs by sulforhodamine B assay
- Assay type: functional
- Condition description: COLO 205, 48 h
Measured endpoint: log10 GI50 (log10 of the value in nM)

1) COc1cc(-c2nc3ccccc3s2)ccc1OCCCCOc1cc2c(cc1OC)C(=O)N1CCC[C@H]1C=N2; 2.84
2) COc1cc(-c2nc3ccccc3s2)ccc1OCCCCCOc1cc2c(cc1OC)C(=O)N1CCC[C@H]1C=N2; 1.78
3) COc1cc2c(cc1OCCCCC(=O)Nc1ccc(-c3nc4ccccc4s3)cc1)N=C[C@@H]1CCCN1C2=O; 3.23
4) COc1cc2c(cc1OCCCCOc1ccc(-c3nc4ccccc4s3)cc1)N=C[C@@H]1CCCN1C2=O; 2.53
5) COc1cc2c(cc1OCCCCCOc1ccc(-c3nc4ccccc4s3)cc1)N=C[C@@H]1CCCN1C2=O; 2.59
